Assay Notes: Restrictive medium S. cerevisiae growth inhibition, OD615, pilot screen of yeast lifespan reduction project, restrictive growth control (AID 706);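 further: modified DeaD lifespan yeast strain shifted to restrictive glucose medium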
Condition Notes: OD615, 48 h, at 10 µM, stronger effect = higher value
Each entry below lists one item and its recorded growth inhibition value.
Just the number in %, nothing appended.

CC1CCCCN1CCCNC(=O)C1CCN(c2nc3ccccc3o2)CC1 (centres undefined); -4.11
O=C(NCCN1CCOCC1)c1ccc2c(c1)ncn2C1CCCC1; 5.44
O=C(c1cccc2c1-c1ccccc1/C2=N/O)N1CCCCC1; -0.58
CCC(O)CNc1nc(SC)nc2sc3c(c12)CCN(C)C3 (centres undefined); -14.2
NC(=O)C1(N2CCCCC2)CCN(S(=O)(=O)c2cc(Cl)ccc2Cl)CC1; 3.53

Data request, read-out growth inhibition, for `Cc1cc(C)nc(NS(=O)(=O)c2ccc(NC(=O)c3ccc4c(c3)OCO4)cc2)n1` -0.9

Now consider `CCOC(=O)C1CCN(C(=O)CN(c2ccc(OC)cc2)S(=O)(=O)c2c(C)nn(C)c2C)CC1` . -3.18

* * *

Each entry below lists one item and its recorded RAM network inhibition value.
Assay Notes: RAM signaling pathway blockade in yeast – S. cerevisiae, Pdr1DBD-CYC8 efflux-inhibited sensitized strain, primary screen (AID 1298);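 further: 0% = DMSO untreated cells without growth and 100% = 10 µM 1-NA-PP1 full growth; higher means more yeast growth rescued from 5-FOA killing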
Condition Notes: S. cerevisiae cbk1-as DSE1-URA3 strain, 5-FOA growth OD615, 2 d; at 50 µM; stronger effect = higher value
Just the number in %, nothing appended.

COc1ccc2c(c1)CC(C1(O)C(=O)N(C)c3ccccc31)C2=O (configuration not stated); 2.96
CN(C)S(=O)(=O)c1ccc(C(=O)Nc2ccc(OCC(=O)N3CCOCC3)cc2)cc1; 0.86
O=C(NCCc1ccccc1)C1CCN(S(=O)(=O)c2cccnc2)CC1; 1.62
CCN1CCCC(NC(=O)c2scc3c2CCCC3)C1 (configuration not stated); -0.09
CCc1ccc2[nH]cc(C(=O)OCCOC)c(=O)c2c1; 1.6
COc1ccc(OC)c(-n2c(SCC(=O)Nc3cc(C)on3)nnc2-c2c[nH]c3ccccc23)c1; 1.29
CCCC(=O)OCCNC(=O)c1cc2ccccc2oc1=O; 2.41
O=C(C1CCC(CNc2c(N3CCCCC3)c(=O)c2=O)CC1)N1CCCCC1 (configuration not stated); 7.26

Data request, read-out RAM network inhibition, for COc1cc2c(cc1OC)C(C(=O)Nc1ccc3c(c1)OCCO3)C(c1cccnc1)N(C)C2=O (configuration not stated) -0.57

Now consider `CCOC(=O)c1cnc2nc[nH]n2c1=O` . -0.24

* * *

Assay Notes: growth suppression of PTEN-deleted HCT116, pilot screen, cell-based, HCT116 clonal line, CellTiter-Glo (AID 824);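 further: 0% = 20 µM Hyamine control and 100% = vehicle cell control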
Condition Notes: 60 h, at 10 µM, stronger effect = lower value
Inconclusive results are not listed.
Each entry below lists one item and its recorded viability value.
Just the number in %, nothing appended.

COC(=O)C1=C(C)NC(=O)CC1c1cccc(Cl)c1Cl (stereo unspecified); 98
COc1ccc2ccccc2c1C1CC(=O)N2CN(Cc3ccco3)CSC2=C1C#N (stereo unspecified); 80.9
COc1ccc(OC)c2sc(NC(=O)C(C)C)nc12; 92
Cc1ccc(Cl)cc1NC(=O)Cn1cc2c(n1)CCCC2; 97

Data request, read-out viability, for `COc1ccc(CNC(=O)c2onc(C)c2Cl)cc1` 93.7

Now consider `O=C(c1ccncc1)N1CCN(C(=O)c2cccc3ccccc23)CC1` . 93.9

Now consider `CC(C)Nc1ncnc2c1cnn2-c1ccc(Cl)cc1` . 72.6

Now consider `O=C(Nc1ccccc1Cl)c1ccc(S(=O)(=O)N2CCOCC2)cc1` . 99.4

Now consider `COc1ccccc1CNC(=O)c1ccc(CNc2c(N3CCCC3)c(=O)c2=O)cc1` . 94.8

Now consider `COc1ccc(Cl)cc1NC(=O)Cn1c(=O)n2nc(C)nc2c2ccccc21` . 87.8

Now consider `Cn1c(NC(=O)CC2CCCCC2)cc(=O)n(C)c1=O` . 87

* * *

Assay Notes: inhibitors of the yeast RAM network, pilot screen, dse1pr::URA3 reporter, 5-FOA selection (AID 869);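 further: 0% = DMSO wells with no growth and 100% = 10 µM 1-NA-PP1 with full growth; RAM network block rescues cells from 5-FOA so hits raise OD615 growth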
Condition Notes: S. cerevisiae dse1pr::URA3 5-FOA growth, OD615, 2 d; at 10 µM; stronger effect = higher value; strain carries analog-sensitive mutant Cbk1 kinase
Each entry below lists one item and its recorded inhibition value.
Just the number in %, nothing appended.

Completed entries (count: 2):
CCc1ccc(NC(=O)C2CC=CCC2C(=O)O)cc1 (configuration not stated); -0.5
CCC(=O)c1ccc(OCC(=O)Nc2nn3cnnc3s2)cc1; 1.27

Data request, read-out inhibition, for `COc1ccc(NC(=O)CSc2nnc(-c3ccccn3)n2N)cc1` 0.535

Now consider COc1cccc(C2CC(c3ccccc3)Nc3nc(N)nn32)c1 (configuration not stated) . 1.83

Now consider `CCOc1ccc(CC(=O)Nc2c(C(N)=O)oc3ccc(Br)cc23)cc1OCC` . 2.49

Now consider `Cc1ccccc1-n1c(C)nc2ccccc21` . 1.79

Now consider `CCN(CC)C(=O)CSc1ccccc1N` . 0.885

Now consider Cc1ccsc1C1NC(=O)c2c(sc3c2CCN(C)C3)N1 (configuration not stated) . 1.37

Now consider `CCOC(=O)c1cc2c(=O)n3ccccc3nc2n(CCCOC)c1=NC(=O)c1cccnc1` . 0.775

Now consider `CC(=O)NCC(=O)NC1(C(=O)NC2CCCC2)CCCCC1` . 4.11

Now consider `Cc1ccc(C(=O)NCc2ccc3c(c2)OCO3)cc1N1CCCC1=O` . 0.635

Now consider `COc1cccc(NC=C2C(=O)OC3(CCCCC3)OC2=O)c1` . 2.04

* * *

Assay Notes: growth suppression of PTEN-deleted HCT116, pilot screen, cell-based, HCT116 clonal line, CellTiter-Glo (AID 824);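 further: 0% = 20 µM Hyamine control and 100% = vehicle cell control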
Condition Notes: 60 h, at 10 µM, stronger effect = lower value
Inconclusive results are not listed.
Each entry below lists one item and its recorded viability value.
Just the number in %, nothing appended.

Cc1cccc(-n2ncc3c(Nc4ccc(F)cc4)ncnc32)c1; 95.4
Cc1ccccc1NS(=O)(=O)c1cccc(-c2nnc(-c3ccccc3)o2)c1; 85.7
Cn1c(C(=O)Nc2ccc3c(c2)OCCO3)cc2c(=O)n(C)c3ccccc3c21; 64.3
Cc1cc(C)c2c(N)c(C(=O)Nc3nccs3)sc2n1; 90.5
COC(=O)C1=C(C)NC(=O)NC1c1cn(-c2ccccc2)nc1-c1cccs1 (stereo not drawn); 82.4
CCOCCn1c(SCCc2ccccc2)nc2c1c(=O)[nH]c(=O)n2C; 98.9
CCOC(=O)CCSCC(=O)Nc1nnc(C)s1; 100
CC(=O)N1CCC2(CC1)C(C#N)=C(N)Oc1n[nH]c(C)c12; 98.2
Cc1cc(C)cc(N(CC(=O)NC2CC3CCC2C3)S(C)(=O)=O)c1 (stereo not drawn); 88
Cc1ccc(C(=O)CSc2nnc(-c3cccs3)n2C)o1; 108

Data request, read-out viability, for `Cn1cccc1Cc1nnc(SCC(=O)N2CCCCCC2)n1CCc1ccccc1` 96.1

* * *

Each entry below lists one item and its recorded RAM network inhibition value.
Assay Notes: RAM signaling pathway blockade in yeast – S. cerevisiae, Pdr1DBD-CYC8 efflux-inhibited sensitized strain, primary screen (AID 1298);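 further: 0% = DMSO untreated cells without growth and 100% = 10 µM 1-NA-PP1 full growth; higher means more yeast growth rescued from 5-FOA killing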
Condition Notes: S. cerevisiae cbk1-as DSE1-URA3 strain, 5-FOA growth OD615, 2 d; at 50 µM; stronger effect = higher value
Just the number in %, nothing appended.

Completed entries (count: 2):
CCn1c(C(C)NC(C)=O)nc2ccccc21 (configuration not stated); 3.48
CCN(CC)C(=O)Nc1cnc2ccccc2c1; 5.38

Data request, read-out RAM network inhibition, for CCCN1C(=O)c2cc(C(=O)NCCc3cccc(C)c3)ccc2C1O (configuration not stated) 1.65

Now consider `Nc1nnc(CCc2ccccc2)s1` . 0.62

Now consider `Cc1ccc(-n2nnc3c(=O)n(Cc4cccc(C)c4)cnc32)cc1` . 1.34

* * *

Assay Notes: growth suppression of beta-catenin knockout HCT116, pilot screen, human colon tumor cells (AID 823);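 further: 0% = wells killed by 20 µM Hyamine and 100% = untreated DMSO cell wells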
Condition Notes: CellTiter-Glo, 60 h, at 10 µM, stronger effect = lower value
Results filed as inconclusive are left out. The source made the active and inactive calls.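 Rule for the calls: active = cell viability at or below a set limit in both duplicate runs, the limit being the all-compound median minus 4 SD (cut at about 23% in these data, passing the limit was not always enough); inconclusive = no clear call, values can overlap the other calls; inactive = the rest.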
Each entry below lists one item and its recorded viability value.

Completed entries (count: 2):
C=CCc1cccc2cc(C(=O)N(C)C)c(=O)oc12; 105% (inactive)
CCC1Oc2ccc(C)cc2N(CC(=O)NCCc2ccc(OC)c(OC)c2)C1=O (centres undefined); 95.2% (inactive)

Data request, read-out viability, for `Cc1cccc(NC(=O)CN2CCN(CC(=O)Nc3cccc(C)c3)CC2)c1` 90.1% (inactive)

Now consider `O=C(OCCN1C(=O)c2ccccc2C1=O)c1cccs1` . 104% (inactive)

Now consider `CCCc1nc(N2CCN(C)CC2)c2sc(=S)n(-c3ccccc3)c2n1` . 83.8% (inactive)

Now consider `CCc1ccc(-c2nc(C(N)=O)c3[nH]c(=O)n(-c4ccccc4OC)c3n2)cc1` . 15.6% (active)

Now consider `COc1cc(OC)cc(-c2cc(NC(C)=O)n[nH]2)c1` . 90.8% (inactive)

Now consider COC(=O)NCC(c1cccnc1)N1CCN(c2ccccc2F)CC1 (centres undefined) . 95.6% (inactive)

Now consider `CC(C)Cc1cc(C(=O)Nc2ccc(F)cc2F)no1` . 100% (inactive)
